Molecular target: recombinant eIF4E (Homo sapiens (Human), UniProt P06730)
Sequence (P06730 whole entry): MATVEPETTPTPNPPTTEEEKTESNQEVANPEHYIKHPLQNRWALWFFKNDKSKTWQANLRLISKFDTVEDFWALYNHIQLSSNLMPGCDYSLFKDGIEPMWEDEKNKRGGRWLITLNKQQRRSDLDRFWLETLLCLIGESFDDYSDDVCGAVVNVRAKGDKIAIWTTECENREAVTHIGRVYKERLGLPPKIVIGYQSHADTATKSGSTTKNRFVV
Assay: Fluorescence polarization competition assay for eIF4E binding potency
Conditions: inhibition of eIF4E/EDA-m7GDP-ATTO-550 binding by 50%; Table 4B calculated values; read-out: IC50
Experimental: Compounds were screened for eIF4E binding potency using a fluorescence polarization competition assay. All binding reactions were performed in fluorescence polarization buffer (FPB) containing 20 mM Tris pH 7.5, 100 mM NaCl, 1 mM DTT, and 0.02% Tween-20. Final binding reactions contained 75 nM recombinant eIF4E (Beryllium, custom order), 20 nM EDA-m^7GDP-ATTO-550 (Jena Bioscience, NU-827-550) and varying concentrations of the inhibitory compound of interest. […]
reportedMetric: pIC50
In plain terms, pIC50 is the concentration in mol/L turned into minus its base-10 logarithm.

The value of pIC50 recorded for Cc1nc2cc(C(F)(F)F)c(F)c(C#N)c2c(=O)n1CCOc1ccc(Cl)cc1-c1ccnc2c(C(=O)O)csc12 [compound 246] when tested on recombinant eIF4E (Homo sapiens (Human), UniProt P06730) reads 7.37

Field pIC50 (system: recombinant eIF4E (Homo sapiens (Human), UniProt P06730)) for entry Cc1nc2cnc(N(C)C3CCN(CC(C)(F)F)CC3)c(C#N)c2c(=O)n1CC#Cc1ccc(Cl)cc1-c1ccnc2c(C(=O)NS(=O)(=O)CC(F)F)csc12 [compound 1105] = 7.66

For Cc1cc(-c2cc(Cl)ccc2OCCn2c(C)nc3cc(C(C)N(C)C)c(OC(F)F)c(C#N)c3c2=O)c2scc(C(=O)O)c2n1 (stereo not shown) [compound 710] on recombinant eIF4E (Homo sapiens (Human), UniProt P06730), measured pIC50 was 7.50

Record CCc1cc(-c2cc(Cl)ccc2OCCn2c(C)nc3cc(C(F)(F)F)c(-c4ccn(C)n4)c(C#N)c3c2=O)c2scc(C(=O)O)c2n1 [compound 1014] ; system recombinant eIF4E (Homo sapiens (Human), UniProt P06730); pIC50 = 7.59

Form: item C#Cc1c(-c2cc(Cl)ccc2OCCn2c(C(F)F)nc3cccc(C#N)c3c2=O)ccnc1C(=O)O [compound 163] ; test system recombinant eIF4E (Homo sapiens (Human), UniProt P06730); pIC50: 7.02

For the compound Cc1cc(-c2cc(Cl)ccc2OCCn2c(C)nc3cnc(N4CC5CCC(C4)N5C)c(C#N)c3c2=O)c2sc(C)c(C(=O)O)c2n1 [compound 868] , the measured pIC50 on recombinant eIF4E (Homo sapiens (Human), UniProt P06730) was 7.76

# pIC50 measured on recombinant eIF4E (Homo sapiens (Human), UniProt P06730) for item N#Cc1cc2c(=O)n(CCCc3ccc(Cl)cc3-c3cccc(C(=O)O)c3)cnc2cn1 [compound 42] = 4.70

Short answer on recombinant eIF4E (Homo sapiens (Human), UniProt P06730) for Cc1cc(-c2cc(Cl)ccc2OCCn2c(C)nc3cc(C(F)(F)F)c(-c4cc(C)nn4C)c(C#N)c3c2=O)c2scc(C(=O)O)c2n1 [compound 1028] , pIC50: 8.21

Entry C#Cc1c(C(=O)O)cccc1-c1cc(Cl)ccc1OCCn1cnc2cc(C(F)(F)F)cc(C#N)c2c1=O [compound 159] ; assay system recombinant eIF4E (Homo sapiens (Human), UniProt P06730); pIC50 recorded at 7.51

Form field pIC50 for item N#Cc1cc(C(F)(F)F)cc2ncn(CCOc3ccc(Cl)cc3-c3ccnc4c(C(=O)O)csc34)c(=O)c12 [compound 164] on recombinant eIF4E (Homo sapiens (Human), UniProt P06730): 7.79

Entry Cc1nc2cnc(N3CCC4(CC3)CN(CC(C)(F)F)C4)c(C#N)c2c(=O)n1CC#Cc1ccc(Cl)cc1-c1ccnc2c(C(=O)O)csc12 [compound 1137] under recombinant eIF4E (Homo sapiens (Human), UniProt P06730) had pIC50 of 7.76

Summary: Cc1cc(-c2cc(Cl)ccc2OCCn2c(C)nc3ccc(C(F)(F)CN(C)C)c(C#N)c3c2=O)c2scc(C(=O)O)c2n1 [compound 529] , recombinant eIF4E (Homo sapiens (Human), UniProt P06730), pIC50 = 8.24

GET /values?item= Cc1cc(-c2cc(Cl)ccc2OCCn2c(C)nc3cnc(-c4cccc(F)c4)c(C#N)c3c2=O)c2scc(C(=O)O)c2n1 [compound 942] &system= recombinant eIF4E (Homo sapiens (Human), UniProt P06730) returns pIC50: 8.16
